- Test system: UACC-257 melanoma
- test.protocol: NCI tumour cell line growth inhibition, 48 h
Hi there, I'd appreciate the recorded TGI for every entry that follows.

The compound listed as `CC1=C(C(=O)Nc2ccccc2C)C(c2ccc(C3C(C(=O)Nc4ccccc4C)=C(C)NC(C)=C3C(=O)Nc3ccccc3C)cc2)C(C(=O)Nc2ccccc2C)=C(C)N1` shows TGI equal to 9.84 µM

Recorded TGI (compound `CCOC(=O)/C(C=Nc1c(C)n(C)n(-c2ccccc2)c1=O)=C(/O)c1ccccc1` ): > 100 µM

Notebook: COCc1c(CO)cnc(C)c1OC1OC(CO)C(O)C(O)C1O (stereo not given) , TGI read as > 100 µM

TGI reported for this compound C=CC(CBr)CCC(Br)C(C)(C)Br (stereo not given) : > 10 µM

Memo: `CN[C@@H](C)C(=O)N[C@H]1CN(C(=O)CC(C)C)CC[C@H]2CC[C@@H](C(=O)NC(c3ccccc3)c3ccccc3)N2C1=O` , reported TGI: > 100 µM

Entry under test: `Cc1ccccc1N=CN(C)C` . Its TGI was 71.1 µM

Entry `COc1ccc(/C=N/N=C(\N)NO)c(Cl)c1O` — recorded TGI = > 100 µM

Reported TGI for `O=C1OC(c2ccccc2)=N/C1=C\c1ccc2ccccc2c1` was > 100 µM

Value of TGI reported for the compound `COc1ccc2c(c1)CCN=C2Cc1ccccc1CCCl` is 88.9 µM

So for CCN1C(=S)n2cccc2C1CC(=O)c1ccc(Cl)cc1 (stereo not given) , the logged TGI turned out to be > 100 µM
